test system: Eimeria tenella; experiment: In vivo anti-coccidial activity determined at a dose of <16 p.p.m. (battery efficacy against Eimeria tenella); IA means Inactive; format: functional, organism-based
Calls of active or inactive are those of the source. The calls are words filed in the database; no cut-off is given here.
OUTCOME MEASURE: Activity

In the examples that follow, each entry is paired with its recorded Activity.
| COMPOUND | SYSTEM | Activity |
| --- | --- | --- |
| C=C(c1c(Cl)cc(-n2ncc(=O)[nH]c2=O)cc1Cl)C1CCCCC1 | Eimeria tenella | inactive |
| CC1CC=C(c2c(Cl)cc(-n3ncc(=O)[nH]c3=O)cc2Cl)CC1 (stereo not given) | Eimeria tenella | inactive |
| C=C(c1c(Cl)cc(-n2ncc(=O)[nH]c2=O)cc1Cl)C1CCCC1 | Eimeria tenella | inactive |
| O=c1cnn(-c2ccc(I)c(C(F)(F)F)c2)c(=O)[nH]1 | Eimeria tenella | inactive |

Record lookup: for Eimeria tenella, what Activity belongs to O=C(O)c1nn(-c2ccc(I)c(C(F)(F)F)c2)c(=O)[nH]c1=O ?
inactive
